Below are pIC50 values for G protein-coupled receptor kinase 5 (Homo sapiens, UniProt P34947) collected from several publications.
pIC50: −log10 of the molar value.
Observed property: pIC50

1) Cc1[nH]c(/C=C2\C(=O)Nc3ccc(C(=O)N[C@H](C)c4ccccc4)cc32)c(C)c1C(=O)N[C@@H]1c2ccccc2C[C@@H]1O; 6.00 to 7.00
2) Cc1[nH]c(/C=C2\C(=O)Nc3ccc(C(=O)N[C@H](C)c4cccc(Cl)c4)cc32)c(C)c1C(=O)N1CCCCC1; 6.00 to 7.00
3) O=C(NCCc1ccccc1)c1cc([C@@H]2CCNC[C@H]2COc2ccc3c(c2)OCO3)ccc1F; < 4.00
4) CC[C@@H](NC(=O)c1ccc2c(c1)/C(=C/c1[nH]c(C)c(C(=O)N3CCC(N4CCN(C)CC4)CC3)c1C)C(=O)N2)c1ccccc1; 6.00 to 7.00
5) Cc1[nH]c(/C=C2\C(=O)Nc3ccc(C(=O)N[C@H](C)c4ccccc4)cc32)c(C)c1C(=O)NCC1CCOC1 (mixture of isomers); 7.00 to 9.00
6) Cc1[nH]c(/C=C2\C(=O)Nc3ccc(C(=O)N[C@H](C)c4ccccc4)cc32)c(C)c1C(=O)N[C@H]1CCc2ccccc21; < 5.00
7) Cc1[nH]c(/C=C2\C(=O)Nc3ccc(C(=O)N[C@H](C)c4ccc(F)cc4)cc32)c(C)c1C(=O)N[C@@H]1c2ccccc2C[C@H]1O; 6.00 to 7.00
8) Cc1[nH]c(/C=C2\C(=O)Nc3ccc(C(=O)N[C@H](C)c4ccccc4)cc32)c(C)c1C(=O)NCC1CCCCO1 (some centres unmarked); 7.00 to 9.00
9) CC[C@H](NC(=O)c1ccc2c(c1)/C(=C/c1[nH]c(C)c(C(=O)N3CCC[C@H]3CN3CCCC3)c1C)C(=O)N2)c1ccccc1; 5.00 to 5.70
10) Cc1[nH]c(/C=C2\C(=O)Nc3ccc(C(=O)N[C@H](C)c4ccccc4)cc32)c(C)c1C(O)C#N (some centres unmarked); 6.00 to 7.00
11) C[C@@H](NC(=O)c1ccc2c(c1)/C(=C/Nc1ccc(CN3CCCCC3)cc1)C(=O)N2)c1ccc(Cl)cc1; 6.00 to 7.00
12) Cc1[nH]c(CC2C(=O)Nc3ccc(C(=O)N[C@H](C)c4ccc(F)cc4)cc32)c(C)c1NC(=O)[C@H](O)c1ccco1 (some centres unmarked); 6.00 to 7.00
13) Cc1[nH]c(/C=C2\C(=O)Nc3ccc(C(=O)N[C@H](C)c4ccccc4)cc32)c(C)c1C(=O)N[C@H]1Cc2ccccc2[C@H]1O; 7.00 to 9.00
14) Cc1[nH]c(/C=C2\C(=O)Nc3ccc(C(=O)N[C@H](C)c4ccccc4)cc32)c(C)c1C(=O)N[C@H]1c2ccccc2CC[C@H]1O; 6.00 to 7.00
15) Cc1[nH]c(/C=C2\C(=O)Nc3ccc(C(=O)N[C@H](C)c4ccccc4)cc32)c(C)c1C(=O)N[C@@H]1CCc2ccccc21; 5.00 to 6.00
16) Cc1[nH]c(/C=C2\C(=O)Nc3ccc(C(=O)N[C@H](C)c4ccccc4)cc32)c(C)c1C(=O)NCC1CCCO1 (some centres unmarked); 7.00 to 9.00
17) CC[C@@H](NC(=O)c1ccc2c(c1)/C(=C/c1[nH]c(C)c(C(=O)N3CCCCC3)c1C)C(=O)N2)c1ccccc1; 6.00 to 7.00
